Test system: Ctenocephalides felis
Experiment: Ctenocephalides felis test (CTECFE)
Format: in vivo
Details: application rate 100 ppm in cattle blood, adult unfed fleas, 100% = all fleas killed
measuredQuantity: mortality at 100 ppm

Reference set, count: 5
smilescode=CCc1cc(SC(F)(F)F)cc(C)c1NC(=O)c1cccc(NC(=O)c2ccccc2F)c1 targetundertest="Ctenocephalides felis" result="≥ 80%"
smilescode=O=C(Nc1cccc(C(=O)Nc2c(I)cc(C(F)(F)F)cc2C(F)(F)F)c1)c1ccc(Cl)cc1 targetundertest="Ctenocephalides felis" result="≥ 80%"
smilescode=O=C(Nc1c(I)cc(C(F)(F)F)cc1C(F)(F)F)c1cccc(NC(=O)c2ccccc2F)c1 targetundertest="Ctenocephalides felis" result="≥ 80%"
smilescode=O=C(Nc1c(Br)cc(S(F)(F)(F)(F)F)cc1Br)c1cccc(NC(=O)c2ccccc2F)c1 targetundertest="Ctenocephalides felis" result="≥ 80%"
smilescode=O=C(Nc1c(I)cc(C(F)(F)F)cc1I)c1cccc(NC(=O)c2cccnc2F)c1 targetundertest="Ctenocephalides felis" result="≥ 80%"

[Q] State its mortality at 100 ppm for this molecule: "CCc1cc(SC(F)(F)C(F)(F)F)cc(C)c1NC(=O)c1cccc(NC(=O)c2ccccc2F)c1"
[A] ≥ 80%

[Q] Identify measured mortality at 100 ppm corresponding to "O=C(Nc1c(I)cc(C(F)(F)F)cc1I)c1cccc(NC(=O)c2ccccc2F)c1"
[A] ≥ 80%

[Q] Fill in reported mortality at 100 ppm for this entry: "O=C(Nc1cccc(C(=O)Nc2c(Br)cc(Br)cc2C(F)(F)F)c1)c1ccc(Cl)cc1"
[A] ≥ 80%

[Q] Give the value of mortality at 100 ppm reported for the following: "O=C(Nc1cccc(C(=O)Nc2c(I)cc(C(F)(F)F)cc2C(F)(F)F)c1)c1ccccc1"
[A] ≥ 80%
